The reported measurements were obtained from PubChem BioAssay AID1259407.

- System: CCRIS mutagenicity, Ames/micronucleus/aberration tests
- MEASUREMENT_NOTES: CCRIS mutagenicity studies
- CONDITION_INFO: Test System: AMES SALMONELLA TYPHIMURIUM; Strain/Indicator: TA1535; Metabolic Activation: RAT, LIVER, S-9, AROCLOR 1254; Method: STANDARD PLATE
Calls of active or inactive are those of the source. No rule for the calls is given here.
Pick one and only one: active, inactive

Past entries and their recorded results:
COMPOUND | CLASS
COC(=O)c1ccc(C(=O)OC)cc1 | inactive
CCOC(=O)CBr | inactive
Nc1ncn([C@@H]2O[C@H](CO)[C@@H](O)[C@@H]2O)c(=O)n1 | inactive

Lab note: next compound to report on.
Field: outcome | Entry: CC(C)=CC1C(C(=O)O)C1(C)C (centres undefined) inactive

----------
- Test system: CCRIS mutagenicity, Ames/micronucleus/aberration tests
- MEASUREMENT_NOTES: CCRIS mutagenicity studies
- CONDITION_INFO: Test System: AMES SALMONELLA TYPHIMURIUM; Strain/Indicator: TA98; Metabolic Activation: RAT LIVER S-9, AROCLOR 1254; Method: STANDARD PLATE
Activity calls are given as the source filed them. The rule behind the calls is not given here.
Pick one and only one: TRUE = active, FALSE = inactive

Past entries and their recorded results:
LINE_NOTATION | CLASS
CC1=CC(=O)c2c(O)cccc2C1=O | FALSE
Cn1c2ccccc2c2ccc([N+](=O)[O-])cc21 | TRUE

Lab note: next compound to report on.
Field: outcome | Entry: `Cc1cc(O)cc2oc(=O)c3c(O)cc(O)cc3c12` FALSE

----------
- System: CCRIS mutagenicity, Ames/micronucleus/aberration tests
- MEASUREMENT_NOTES: CCRIS mutagenicity studies
- CONDITION_INFO: End Point: IN VITRO CHROMOSOMAL ABERRATIONS; Test System: CHINESE HAMSTER OVARY CELLS (CHO); Metabolic Activation: NONE
Calls of active or inactive are those of the source. The rule behind the calls is not given here.
Pick one and only one: 1 (active), -1 (inactive)

LINE_NOTATION | CLASS
Oc1cc(Cl)c(Cl)c(Cl)c1Cl | -1
Nc1cccc(N)c1 | 1
Oc1ccc(Cl)c(Cl)c1Cl | -1
CN(C)c1ccc(N)cc1 | -1
CN(C)c1ccc(N(C)C)cc1 | 1

Lab note: next compound to report on.
Field: outcome | Entry: `Cc1c(N)cccc1N` 1

----------
- Tested on: CCRIS mutagenicity, Ames/micronucleus/aberration tests
- MEASUREMENT_NOTES: CCRIS mutagenicity studies
- CONDITION_INFO: Test System: AMES SALMONELLA TYPHIMURIUM; Strain/Indicator: TA100; Metabolic Activation: RAT, LIVER, S-9, AROCLOR 1254 (10%); Method: STANDARD PLATE
Activity calls are given as the source filed them. The rule behind the calls is not given here.
Pick one and only one: True (active), False (inactive)

Past entries and their recorded results:
LINE_NOTATION | CLASS
Cc1ncc[nH]1 | False
c1ccc2c(c1)ccc1cc3ccc4ccncc4c3cc12 | True
O=S1(=O)c2cccc3ccc4c5ccccc5cc1c4c23 | True
C=C[Si](C)(Cl)Cl | False
CS(=O)(=O)O | False

Lab note: next compound to report on.
Field: outcome | Entry: `N#CC(C#N)=C(C#N)C#N` False

----------
- Tested on: CCRIS mutagenicity, Ames/micronucleus/aberration tests
- MEASUREMENT_NOTES: CCRIS mutagenicity studies
- CONDITION_INFO: Test System: AMES SALMONELLA TYPHIMURIUM; Strain/Indicator: TA100; Metabolic Activation: RAT, LIVER, S-9; Method: PREINCUBATION
Calls of active or inactive are those of the source. The rule behind the calls is not given here.
Pick one and only one: class 1 for active, class 0 for inactive

Past entries and their recorded results:
COMPOUND | CLASS
O=[N+]([O-])c1cc2c3ccccc3ccc2c2ccccc12 | class 1
CC(=O)OCc1c(O)c(C(=O)O)c(C)c2c1OC(=O)c1c(C)cc(O)c(C=O)c1O2 | class 1
CC(C)(S)C(=O)N[C@@H](CS)C(=O)O | class 0

Field: outcome | Entry: `c1ccc(Cn2ccnc2)cc1` class 1

Field: outcome | Entry: O=C(O)C(F)(F)C(F)(Cl)C(F)(F)C(F)(Cl)C(F)(F)C(F)(Cl)C(F)(F)Cl (stereo unspecified) class 0

Field: outcome | Entry: CCOc1ccc(NC(=O)CC(C)O)cc1 (stereo unspecified) class 0

----------
- System: CCRIS mutagenicity, Ames/micronucleus/aberration tests
- MEASUREMENT_NOTES: CCRIS mutagenicity studies
- CONDITION_INFO: Test System: AMES SALMONELLA TYPHIMURIUM; Strain/Indicator: TA1537; Metabolic Activation: NONE; Method: PREINCUBATION
The source made the active and inactive calls. The rule behind the calls is not given here.
Pick one and only one: active, inactive

COMPOUND | CLASS
Clc1ccc(Cl)c(Cl)c1 | inactive
Clc1ccc(Cl)c(Cl)c1Cl | inactive
Oc1cc(O)c2ccccc2c1 | inactive
NCCCNCCCN | inactive
ClCc1ccccc1 | inactive

Lab note: next compound to report on.
Field: outcome | Entry: `N=C(N)N` inactive

----------
- Tested on: CCRIS mutagenicity, Ames/micronucleus/aberration tests
- MEASUREMENT_NOTES: CCRIS mutagenicity studies
- CONDITION_INFO: Test System: AMES SALMONELLA TYPHIMURIUM; Strain/Indicator: TA1538; Metabolic Activation: HAMSTER, LIVER, S-9, AROCLOR 1254; Method: STANDARD PLATE
Active and inactive are the calls of the source. The rule behind the calls is not given here.
Pick one and only one: 1 for active, -1 for inactive

Past entries and their recorded results:
LINE_NOTATION | CLASS
C/C=C/C=C/C=O | -1
O=S(=O)(O)c1c(N=Nc2c(O)ccc3ccccc23)ccc2ccccc12 | 1
CC(=O)c1ccccn1 | -1
Nc1ccc2ccccc2c1N=Nc1ccccc1 | -1

Lab note: next compound to report on.
Field: outcome | Entry: `O=c1[nH]cnc2c1ncn2[C@H]1CC[C@@H](CO)O1` -1

----------
- Test system: CCRIS mutagenicity, Ames/micronucleus/aberration tests
- MEASUREMENT_NOTES: CCRIS mutagenicity studies
- CONDITION_INFO: Test System: AMES SALMONELLA TYPHIMURIUM; Strain/Indicator: TA98; Metabolic Activation: HAMSTER, LIVER, S-9, AROCLOR 1254 (10%); Method: PREINCUBATION
Calls of active or inactive are those of the source. No rule for the calls is given here.
ATTRIBUTE_MEASURED: mutagenic call

MOLECULE | READING
CC(C)(c1cc(Br)c(O)c(Br)c1)c1cc(Br)c(O)c(Br)c1 | inactive; negative
CC(=O)[O][Hg][c]1ccccc1 | inactive; negative
CC(=O)C(N=Nc1ccc(-c2ccc(N=NC(C(C)=O)C(=O)Nc3ccccc3)c(Cl)c2)cc1Cl)C(=O)Nc1ccccc1 (centres undefined) | inactive; negative

----------
- System: CCRIS mutagenicity, Ames/micronucleus/aberration tests
- MEASUREMENT_NOTES: CCRIS mutagenicity studies
- CONDITION_INFO: Test System: AMES SALMONELLA TYPHIMURIUM; Strain/Indicator: TA100; Metabolic Activation: RAT, LIVER, S-9, PCB; Method: PREINCUBATION
Calls of active or inactive are those of the source. No rule for the calls is given here.
Pick one and only one: True = active, False = inactive

LINE_NOTATION | CLASS
COC(=O)[C@H](C)CN=[N+]=[N-] | True
Cc1ccc(NO)cc1 | True
NCCNCCO | False
CC(=O)Oc1ccc2c(CBr)cc(=O)oc2c1 | False
C=C1C[C@@]23CC[C@H]4[C@@](C)(CCC[C@@]4(C)C(=O)O)[C@@H]2CC[C@]1(O)C3 | False

Field: outcome | Entry: `NC(=O)c1ccccc1O` False

----------
- Test system: CCRIS mutagenicity, Ames/micronucleus/aberration tests
- MEASUREMENT_NOTES: CCRIS mutagenicity studies
- CONDITION_INFO: Test System: AMES SALMONELLA TYPHIMURIUM; Strain/Indicator: TA102; Metabolic Activation: NONE; Method: PREINCUBATION
Active and inactive are the calls of the source. No rule for the calls is given here.
Pick one and only one: t = active, f = inactive

MOLECULE | CLASS
O=c1c2[nH]c3ccccc3c2nnn1/N=C/c1ccc(O)cc1 | t
N[C@@H](CCC(=O)N[C@@H](CSN=O)C(=O)NCC(=O)O)C(=O)O | t
CC(N)[13C](=O)O (stereo not drawn) | f
O=CCC=O | t
CC(C)(N=O)[N+](=O)[O-] | f
O=S(O)CO | f
C[N+](C)(C)CCO | f
NCCNC(=O)c1ccc(Cl)cn1 | f

Field: outcome | Entry: `O=C1O[C@H]([C@H](O)CO)C(O)=C1O` f

Field: outcome | Entry: `C=C1CC(=O)O1` f

Field: outcome | Entry: `N#CC1=C(C#N)C(=O)C(Cl)=C(Cl)C1=O` f

Field: outcome | Entry: `O=C1c2ccccc2C(=O)c2c(O)cccc21` f

Field: outcome | Entry: `Cc1ccsc1` f
